target_of_assay: ER-α in MCF-7 cells (Homo sapiens, UniProt P03372)
Construct: endogenous in cells; host or cells: MCF-7
Sequence (P03372 1-595): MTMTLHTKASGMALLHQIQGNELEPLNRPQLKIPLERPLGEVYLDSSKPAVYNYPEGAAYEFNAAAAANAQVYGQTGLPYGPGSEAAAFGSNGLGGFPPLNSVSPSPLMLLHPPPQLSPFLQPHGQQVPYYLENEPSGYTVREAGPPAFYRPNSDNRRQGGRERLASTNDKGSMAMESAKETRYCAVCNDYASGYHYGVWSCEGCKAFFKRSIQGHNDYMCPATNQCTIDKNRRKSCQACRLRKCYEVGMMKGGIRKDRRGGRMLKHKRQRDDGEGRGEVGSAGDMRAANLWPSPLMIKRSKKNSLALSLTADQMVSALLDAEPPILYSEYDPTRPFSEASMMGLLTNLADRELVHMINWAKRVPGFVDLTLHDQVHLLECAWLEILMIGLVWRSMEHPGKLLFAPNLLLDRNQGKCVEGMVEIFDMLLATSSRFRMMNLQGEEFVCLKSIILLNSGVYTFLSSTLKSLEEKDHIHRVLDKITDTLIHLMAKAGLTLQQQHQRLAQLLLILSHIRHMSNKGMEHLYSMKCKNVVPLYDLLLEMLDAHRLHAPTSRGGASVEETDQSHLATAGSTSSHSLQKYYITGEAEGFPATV
experiment_notes: Breast Cancer Cell ER-α In Cell Western Assay (SP1)
Assay type: cell-based
cond: MCF7, SP1 antibody, 4 or 24 hr post compound addition, read-out: ER-α In Cell Western Assay (SP1) Max Response
test_readout: Emax

molecule="N#Cc1cc(F)ccc1/C(=C(\\c1ccc(/C=C/C(=O)O)cc1)c1ccc2[nH]ncc2c1)C1CCC1 [Example 54]" recorded_value="≥ 40%"
molecule="N#Cc1ccc(/C(=C(\\c2ccc(/C=C/C(=O)O)cc2)c2ccc3[nH]ncc3c2)C2CCC2)c(Cl)c1 [Example 43]" recorded_value="≥ 40%"
molecule="OCC1CN=C(/C=C/c2ccc(/C(=C(\\c3ccccc3)C3CCC3)c3ccc4[nH]nc(F)c4c3)cc2)O1 (stereo not shown) [Example 192]" recorded_value="≥ 40%"
molecule="O=C(O)/C=C/c1ccc(/C(=C(\\c2ccc(F)cc2C(F)(F)F)C2CCC2)c2ccc3[nH]nc(F)c3c2)cn1 [Example 269]" recorded_value="≥ 40%"

###

target_of_assay: ER-α in MCF-7 cells (Homo sapiens, UniProt P03372)
Construct: endogenous in cells; host or cells: MCF-7
Sequence (P03372 1-595): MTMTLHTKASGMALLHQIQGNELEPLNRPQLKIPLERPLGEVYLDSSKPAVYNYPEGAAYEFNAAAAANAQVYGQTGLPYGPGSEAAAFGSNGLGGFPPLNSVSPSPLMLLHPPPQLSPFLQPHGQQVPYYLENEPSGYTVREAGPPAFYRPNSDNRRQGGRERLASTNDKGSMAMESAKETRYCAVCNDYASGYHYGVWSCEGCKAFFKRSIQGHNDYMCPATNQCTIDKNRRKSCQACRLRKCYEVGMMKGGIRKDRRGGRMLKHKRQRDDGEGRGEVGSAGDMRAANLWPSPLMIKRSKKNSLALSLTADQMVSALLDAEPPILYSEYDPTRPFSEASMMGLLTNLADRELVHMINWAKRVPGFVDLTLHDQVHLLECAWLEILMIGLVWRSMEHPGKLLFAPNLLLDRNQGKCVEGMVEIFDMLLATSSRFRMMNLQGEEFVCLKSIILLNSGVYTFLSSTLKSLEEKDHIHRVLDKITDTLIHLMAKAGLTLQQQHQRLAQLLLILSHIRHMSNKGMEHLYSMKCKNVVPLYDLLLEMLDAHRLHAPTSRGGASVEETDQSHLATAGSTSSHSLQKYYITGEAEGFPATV
experiment_notes: Breast Cancer Cell ER-α In Cell Western Assay (SP1)
Format: cell-based
cond: MCF7, SP1 antibody, 4 or 24 hr post compound addition, read-out: ER-α In Cell Western Assay (SP1) Max Response
Emax for assorted molecules
test_readout: Emax

molecule=COc1cccc(/C(=C(\c2ccc(/C=C/C(=O)O)cc2)c2ccc3scnc3c2)C2CCC2)c1 test_readout=Emax recorded_value="≥ 40%"
molecule=Cc1cc(C#N)ccc1/C(=C(\c1ccc(/C=C/C(=O)O)cc1)c1ccc2scnc2c1)C1CCC1 test_readout=Emax recorded_value="≥ 40%"
molecule="Cc1cc([S+](C)[O-])ccc1/C(=C(\\c1ccc(/C=C/C(=O)O)cc1)c1ccc2[nH]nc(F)c2c1)C1CCC1 (stereo not drawn)" test_readout=Emax recorded_value="≥ 40%"
molecule=CS(=O)(=O)c1cc(Cl)ccc1/C(=C(\c1ccc(/C=C/C(=O)O)cc1)c1ccc2[nH]nc(F)c2c1)C1CCC1 test_readout=Emax recorded_value="≥ 40%"
molecule=O=C(O)/C=C/c1ccc(/C(=C(\c2ccncc2F)C2CCC2)c2ccc3[nH]nc(F)c3c2)cc1 test_readout=Emax recorded_value="≥ 40%"
molecule=CC/C(=C(/c1ccc(/C=C/C(=O)O)cc1)c1ccc2[nH]nc(F)c2c1)c1ccccc1Cl test_readout=Emax recorded_value="≥ 40%"

###

Listed compounds paired with reported DC50
target_of_assay: ER-α in MCF-7 cells (Homo sapiens)
Construct: endogenous in cells; host or cells: MCF-7
Sequence (P03372 1-595): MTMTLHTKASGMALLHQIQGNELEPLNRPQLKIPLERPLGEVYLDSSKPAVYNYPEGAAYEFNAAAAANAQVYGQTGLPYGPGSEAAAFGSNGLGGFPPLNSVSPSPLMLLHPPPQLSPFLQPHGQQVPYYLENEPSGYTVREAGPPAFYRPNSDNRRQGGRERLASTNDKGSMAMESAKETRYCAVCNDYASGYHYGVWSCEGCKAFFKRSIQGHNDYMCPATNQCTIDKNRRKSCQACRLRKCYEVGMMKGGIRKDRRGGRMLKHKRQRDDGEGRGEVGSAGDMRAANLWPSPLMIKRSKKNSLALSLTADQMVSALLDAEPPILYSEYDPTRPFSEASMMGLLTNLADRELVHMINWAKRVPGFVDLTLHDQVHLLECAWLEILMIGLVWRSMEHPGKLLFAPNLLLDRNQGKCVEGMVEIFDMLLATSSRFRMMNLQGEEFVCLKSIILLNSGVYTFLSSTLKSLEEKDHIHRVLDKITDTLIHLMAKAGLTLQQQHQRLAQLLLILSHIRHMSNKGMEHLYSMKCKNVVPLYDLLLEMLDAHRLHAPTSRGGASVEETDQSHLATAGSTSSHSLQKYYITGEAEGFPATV
experiment_notes: Breast Cancer Cell ER-α In Cell Western Assay (SP1)
Type: cell-based
cond: SP1 antibody, 4 or 24 hr post compound addition, read-out: ER-α In Cell Western Assay (SP1) IC50
test_readout: DC50

chemical_structure=N#Cc1ccc(/C(=C(\c2ccc(/C=C/C(=O)O)cc2)c2ccc3[nH]nc(F)c3c2)C2CC2)c(Cl)c1 recorded_value="≤ 100 nM"
chemical_structure=N#Cc1cc(Cl)ccc1/C(=C(\c1ccc(/C=C/C(=O)O)cc1)c1ccc2nccn2c1)C1CCC1 recorded_value="≤ 100 nM"
chemical_structure=N#Cc1n[nH]c2ccc(/C(=C(/c3ccccc3)C3CCC3)c3ccc(/C=C/C(=O)O)cc3)cc12 recorded_value="≤ 100 nM"
chemical_structure=NNC(=O)/C=C/c1ccc(/C(=C(\c2ccccc2)C2CCC2)c2ccc3[nH]nc(F)c3c2)cc1 recorded_value="≤ 100 nM"

###

This listing pairs compounds with measured Emax.
target_of_assay: ER-α in MCF-7 cells (Homo sapiens, UniProt P03372)
Construct: endogenous in cells; host or cells: MCF-7
experiment_notes: Breast Cancer Cell ER-α In Cell Western Assay (SP1)
Type: cell-based
cond: MCF7, SP1 antibody, 4 or 24 hr post compound addition, read-out: ER-α In Cell Western Assay (SP1) Max Response
test_readout: Emax

chemical_structure=COc1ccc(/C(=C(\c2ccc(/C=C/c3noc(=O)[nH]3)cc2)c2ccc3scnc3c2)C2CCC2)c(Cl)c1 target_of_assay="ER-α in MCF-7 cells (Homo sapiens, UniProt P03372)" recorded_value="≥ 40%"
chemical_structure=N#Cc1cc(Cl)ccc1/C(=C(\c1ccc(/C=C/C(=O)O)cc1)c1ccc2nccn2c1)C1CCC1 target_of_assay="ER-α in MCF-7 cells (Homo sapiens, UniProt P03372)" recorded_value="≥ 40%"
chemical_structure=O=C(O)/C=C/c1ccc(/C(=C(\c2ccc(C(F)(F)F)cc2Cl)C2CCC2)c2ccc3nccn3c2)cc1 target_of_assay="ER-α in MCF-7 cells (Homo sapiens, UniProt P03372)" recorded_value="≥ 40%"
chemical_structure=N#Cc1cc(C(F)(F)F)ccc1/C(=C(\c1ccc(/C=C/c2noc(=O)[nH]2)cc1)c1ccc2[nH]nc(F)c2c1)C1CCC1 target_of_assay="ER-α in MCF-7 cells (Homo sapiens, UniProt P03372)" recorded_value="≥ 40%"
chemical_structure=O=C(O)/C=C/c1ccc(/C(=C(\c2ccccc2)C2CC2)c2ccc3[nH]nc(F)c3c2)cc1 target_of_assay="ER-α in MCF-7 cells (Homo sapiens, UniProt P03372)" recorded_value="≥ 40%"
chemical_structure=Cc1cc(C#N)ccc1/C(=C(\c1ccc(/C=C/C(=O)O)cc1)c1ccc2[nH]ncc2c1)C1CCC1 target_of_assay="ER-α in MCF-7 cells (Homo sapiens, UniProt P03372)" recorded_value="≥ 40%"
chemical_structure=O=C(O)/C=C/c1ccc(/C(=C(\c2ncccc2F)C2CCC2)c2ccc3[nH]nc(F)c3c2)cc1 target_of_assay="ER-α in MCF-7 cells (Homo sapiens, UniProt P03372)" recorded_value="≥ 40%"
chemical_structure=CC/C(=C(/c1ccc(/C=C/c2nnn[nH]2)cc1)c1ccc2[nH]nc(F)c2c1)c1ccncc1Cl target_of_assay="ER-α in MCF-7 cells (Homo sapiens, UniProt P03372)" recorded_value="≥ 40%"
chemical_structure=CC/C(=C(/c1ccc(/C=C/C(=O)O)cc1)c1ccc2[nH]nc(F)c2c1)c1ccc(OC)cc1C target_of_assay="ER-α in MCF-7 cells (Homo sapiens, UniProt P03372)" recorded_value="≥ 40%"
chemical_structure=CCOC(=O)/C=C/c1ccc(/C(=C(\c2ncc(Cl)cc2Cl)C2CCC2)c2ccc3[nH]nc(F)c3c2)cc1F target_of_assay="ER-α in MCF-7 cells (Homo sapiens, UniProt P03372)" recorded_value="≥ 40%"
chemical_structure=CC/C(=C(/c1ccc(/C=C/C(=O)O)cc1)c1ccc2[nH]nc(F)c2c1)c1cnc(OC)cc1C target_of_assay="ER-α in MCF-7 cells (Homo sapiens, UniProt P03372)" recorded_value="≥ 40%"
chemical_structure=Cc1cnccc1/C(=C(\c1ccc(/C=C/C(=O)O)cc1)c1ccc2[nH]nc(F)c2c1)C1CCC1 target_of_assay="ER-α in MCF-7 cells (Homo sapiens, UniProt P03372)" recorded_value="≥ 40%"
chemical_structure=Cc1cccnc1/C(=C(\c1ccc(/C=C/C(=O)O)cc1)c1ccc2[nH]nc(F)c2c1)C1CCC1 target_of_assay="ER-α in MCF-7 cells (Homo sapiens, UniProt P03372)" recorded_value="≥ 40%"
chemical_structure=O=C(O)/C=C/c1ccc(/C(=C(\c2ccc(C(F)(F)F)cc2Cl)C2CCC2)c2ccc3scnc3c2)cc1 target_of_assay="ER-α in MCF-7 cells (Homo sapiens, UniProt P03372)" recorded_value="≥ 40%"
chemical_structure=O=C(O)/C=C/c1ccc(/C(=C(\c2cc(F)ccc2Cl)C2CCC2)c2ccc3scnc3c2)cc1 target_of_assay="ER-α in MCF-7 cells (Homo sapiens, UniProt P03372)" recorded_value="≥ 40%"
chemical_structure=O=C(O)/C=C/c1ccc(/C(=C(\c2ccc(CO)cc2Cl)C2CCC2)c2ccc3scnc3c2)cc1 target_of_assay="ER-α in MCF-7 cells (Homo sapiens, UniProt P03372)" recorded_value="≥ 40%"
chemical_structure=COc1ccc(/C(=C(\c2ccc(/C=C/C(=O)O)cc2)c2ccc3[nH]nc(F)c3c2)C2CCC2)cn1 target_of_assay="ER-α in MCF-7 cells (Homo sapiens, UniProt P03372)" recorded_value="≥ 40%"
chemical_structure=O=C(O)/C=C/c1ccc(/C(=C(\c2ncccc2C(F)(F)F)C2CCC2)c2ccc3[nH]nc(F)c3c2)cn1 target_of_assay="ER-α in MCF-7 cells (Homo sapiens, UniProt P03372)" recorded_value="≥ 40%"
chemical_structure=CC/C(=C(/c1ccc(/C=C/C(=O)O)cc1)c1ccc2[nH]ncc2c1C#N)c1ccccc1 target_of_assay="ER-α in MCF-7 cells (Homo sapiens, UniProt P03372)" recorded_value="≥ 40%"
chemical_structure=COc1ccc(/C(=C(\c2ccc(/C=C/C(=O)O)cc2)c2ccc3scnc3c2)C2CCC2)cn1 target_of_assay="ER-α in MCF-7 cells (Homo sapiens, UniProt P03372)" recorded_value="≥ 40%"
chemical_structure=CC/C(=C(/c1ccc(/C=C/C(=O)O)cc1)c1ccc2scnc2c1C#N)c1ccccc1 target_of_assay="ER-α in MCF-7 cells (Homo sapiens, UniProt P03372)" recorded_value="≥ 40%"
chemical_structure=O=C(O)/C=C/c1ccc(/C(=C(\c2cnc(C(F)(F)F)cc2C(F)(F)F)C2CCC2)c2ccc3[nH]nc(F)c3c2)cc1 target_of_assay="ER-α in MCF-7 cells (Homo sapiens, UniProt P03372)" recorded_value="≥ 40%"
chemical_structure=CS(=O)(=O)c1ccccc1/C(=C(\c1ccc(/C=C/C(=O)O)cc1)c1ccc2scnc2c1)C1CCC1 target_of_assay="ER-α in MCF-7 cells (Homo sapiens, UniProt P03372)" recorded_value="≥ 40%"
chemical_structure=O=c1[nH]c(/C=C/c2ccc(/C(=C(\c3ncc(C(F)(F)F)cc3Cl)C3CCC3)c3ccc4scnc4c3)cc2)no1 target_of_assay="ER-α in MCF-7 cells (Homo sapiens, UniProt P03372)" recorded_value="≥ 40%"
chemical_structure=N#Cc1ccc(/C(=C(\c2ccc(/C=C/C(=O)O)cc2)c2ccc3[nH]ncc3c2)C2CCC2)c(F)c1 target_of_assay="ER-α in MCF-7 cells (Homo sapiens, UniProt P03372)" recorded_value="≥ 40%"
chemical_structure=O=C(/C=C/c1ccc(/C(=C(\c2ccc(F)cc2Cl)C2CCC2)c2ccc3nccn3c2)cc1)NCCO target_of_assay="ER-α in MCF-7 cells (Homo sapiens, UniProt P03372)" recorded_value="≥ 40%"
chemical_structure=COc1ccc(/C(=C(\c2ccc(/C=C/C(=O)O)cc2)c2ccc3scnc3c2)C2CCC2)c(Cl)c1 target_of_assay="ER-α in MCF-7 cells (Homo sapiens, UniProt P03372)" recorded_value="≥ 40%"
chemical_structure=O=C(O)/C=C/c1ccc(/C(=C(\c2cccc(S(=O)(=O)C(F)(F)F)c2)C2CCC2)c2ccc3[nH]nc(F)c3c2)cc1 target_of_assay="ER-α in MCF-7 cells (Homo sapiens, UniProt P03372)" recorded_value="≥ 40%"
chemical_structure=N#Cc1c(/C(=C(/c2ccccc2)C2CCC2)c2ccc(/C=C/C(=O)O)cc2)ccc2[nH]ncc12 target_of_assay="ER-α in MCF-7 cells (Homo sapiens, UniProt P03372)" recorded_value="≥ 40%"
